Value source: the supplement of paper PMC7125110

B1: glmS ribozyme (parent)
chain: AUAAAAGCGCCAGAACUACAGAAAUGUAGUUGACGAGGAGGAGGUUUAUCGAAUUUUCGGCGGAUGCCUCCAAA

Variants of: B1
PROTOCOL_TEXT: self-cleavage kobs at 2500 uM GlcN6P; higher = faster cleavage; RNA array
RUN_CONDITIONS: with glucosamine-6-phosphate
Fewer inactive variants are shown than the library holds.
Criterion: self-cleavage kobs at 2500 uM GlcN6P meeting or surpassing 0.0001 s⁻¹. Met: 1. Not met: -1.

VARIANT_ANNOTATION	CLASS_LABEL
G32U G41A	-1
U31C G60U C67G	-1
C8U U54A	-1
U30A G41U U57G G62A	-1
G9C G37A	-1
G62A U65G	-1
C16U C71A	1
C11A C16A C50G	-1

Enquiry: // inclusive: self-cleavage kobs at 2500 uM GlcN6P at least 0.0001 s⁻¹? input: A14C G32C C71U
Return: 1

Enquiry: For U45G U65G then?
Return: 1

Enquiry: # iterate: A12U G13A G32C A36G C61U
Return: -1

Enquiry: Similarly, A42C C50U ?
Return: -1

Enquiry: Next entry: A39C U54A
Return: 1

Enquiry: Here is the next variant: G7A G9C A33U G66C
Return: -1

Enquiry: Same for A6C G32U A64G C67U
Return: -1

Enquiry: Try G41C A48C A64G next.
Return: -1

Enquiry: Same question, U57C C70U this time
Return: 1

Enquiry: Try G40A U55A U56C next.
Return: 1
